Just for reference, patent US12564638B2 is where these values come from.

Test system: PC9 cells (EGFR Exon 19 del, non-small cell lung cancer cells)
assay: Cell viability assay (WST/CCK8), PC9 cells
Format: cell-based
measurement_context: Homo sapiens, PC-9; PC9 (Exon19 Del), 72 hours, WST (CCK8); read-out: IC50 (half inhibitory concentration)
Text: The cell lines with abnormal EGFR expression used are as follows: • HCC827 cells (EGFR Exon19 del, non-small cell lung cancer cells); • PC9 cells (EGFR Exon 19 del, non-small cell lung cancer cells); • PC9BracA1 (EGFR Exon 19 del+T790M, non-small cell lung cancer cells) • H1975 (EGFR Exon T790M+L858R mutation, non-small cell lung cancer cell line) • BT474 cells (HER2 positive breast cancer cells) […]
observed_property: pIC50
Conceptually, pIC50 converts a concentration in mol/L into minus its log10.

Consider the following illustrative entries.
Exercise: # pIC50 lookup, item COc1cc2ncnc(Nc3ccc(F)c(Cl)c3)c2cc1NC(=O)/C=C/CN1CCN(C(=O)COCCOCCOCCSc2cccc3c2CN(C2CCC(=O)NC2=O)C3=O)CC1 (centres unmarked)
Key: 7.11

Exercise: I am curious: what pIC50 value has been reported for COc1cc2ncnc(Nc3ccc(F)c(Cl)c3)c2cc1NC(=O)/C=C/CN1CCCCC1 [dacomitinib, reference compound] ?
Key: 9.40

Exercise: Which pIC50 value belongs to COc1cc2ncnc(Nc3ccc(F)c(Cl)c3)c2cc1NC(=O)/C=C/CN1CCC(NC(=O)CCCCCCNc2cccc3c2C(=O)N(C2CCC(=O)NC2=O)C3=O)CC1 (centres unmarked) ?
Key: 8.10

Exercise: What measured pIC50 goes with COc1cc2ncnc(Nc3ccc(F)c(Cl)c3)c2cc1NC(=O)/C=C/CN1CCC(NC(=O)CCCCCCSc2cccc3c2CN(C2CCC(=O)NC2=O)C3=O)CC1 (centres unmarked) ?
Key: 8.14

Exercise: Query (molecule): COc1cc2ncnc(Nc3ccc(F)c(Cl)c3)c2cc1NC(=O)/C=C/CN1CCC(N2CCN(C(=O)CCC(=O)NCCNc3cccc4c3C(=O)N(C3CCC(=O)NC3=O)C4=O)CC2)CC1 (centres unmarked) ; field requested: pIC50
Key: 7.42

New cases:
Exercise: Returns the measured pIC50 for the input molecule. Input: COc1cc2ncnc(Nc3ccc(F)c(Cl)c3)c2cc1NC(=O)/C=C/CN1CCN(C(=O)CCCCCSc2cccc3c2CN(C2CCC(=O)NC2=O)C3=O)CC1 (centres unmarked)
Key: 8.04

Exercise: What does the data say about its pIC50? Entry: COc1cc2ncnc(Nc3ccc(F)c(Cl)c3)c2cc1NC(=O)/C=C/CN1CCC(N2CCN(C(=O)CCc3ccc(CCC(=O)N[C@H](C(=O)N4C[C@H](O)C[C@H]4C(=O)NCc4ccc(-c5scnc5C)cc4)C(C)(C)C)cc3)CC2)CC1
Key: 7.30

Exercise: // returns reported pIC50 for input COc1cc2ncnc(Nc3ccc(F)c(Cl)c3)c2cc1NC(=O)/C=C/CN1CCN(C(=O)CCCCSc2cccc3c2C(=O)N(C2CCC(=O)NC2=O)C3=O)CC1 (centres unmarked)
Key: 7.54

Exercise: Quick one: pIC50 of COc1cc2ncnc(Nc3ccc(F)c(Cl)c3)c2cc1NC(=O)/C=C/CN1CCN(C(=O)CCSc2cccc3c2C(=O)N(C2CCC(=O)NC2=O)C3=O)CC1 (centres unmarked) ?
Key: 7.25

Exercise: Please look up its pIC50: COc1cc2ncnc(Nc3ccc(F)c(Cl)c3)c2cc1NC(=O)/C=C/CN1CCN(C(=O)COCCSc2cccc3c2CN(C2CCC(=O)NC2=O)C3=O)CC1 (centres unmarked)
Key: 7.36

Exercise: Any idea what its pIC50 is? The molecule is COc1cc2ncnc(Nc3ccc(F)c(Cl)c3)c2cc1NC(=O)/C=C/CN1CCC(NC(=O)CSc2cccc3c2CN(C2CCC(=O)NC2=O)C3=O)CC1 (centres unmarked)
Key: 7.14
